B1: Formin-binding protein 4, residues 593 to 636; numbered along this chain, Q8N3X1 (parent)
chain: EINATPKGWSCHWDRDHRRYFYVNEQSGESQWEFPDGEEEEEES

# Variants of: B1
# testSummary: abundance fitness (aPCA) (normalised: wild type 0, dead -1); higher = more abundant; growth selection in yeast, the domain comes from the species named
# assayConditions: Homo sapiens
Below, each entry is listed alongside its reported abundance fitness.
property: abundance fitness

> print(dat)
    variantname  measvalue
 1         P35D     -0.712
 2         R15G     -0.032
 3         E29N     -0.421
 4         E41F     -0.079
 5         S10R     -0.265
 6         F34E     -0.074
 7         Y22I     -0.515
 8         E40P     -0.011
 9         R19Q     -0.092
10         G37I     -0.232
11         W13Q     -0.546
12         Q31K      -0.32
13          I2A     -0.518
14         E39R     -0.068
15         V23L     -0.024
16         N24I      -1.14
17         D14M     -0.682
18         D36Y     -0.494
19         F34H     -0.011
20          T5D     -0.463
21          I2P     -0.094
22         P35A     -0.455
23         F21E     -0.145
24         E38R     -0.023
25         R19C     -0.207
26          T5A     -0.387
27         R19V     -0.491
28         D36M      -0.09
29         E41A      0.012
30         Q26H     -0.266
31         D36A      -0.04
32         Y22T     -0.402
33         H12Y     -0.227
34         W13Y     -0.189
35         H17D     -0.201
36         D16Q     -0.075
37         Q31E     -0.707
38         S27A     -0.611
39         E29D     -0.388
40         E40A      0.038
41         E25S     -0.365
42         E33C     -0.355
43         G28V     -0.932
44          N3E      0.185
45         D14W       -1.4
46         W13E     -0.456
